molecular target: 6xHis-hSUMO-1-eGFP
Observable: activity level (grade)

- human SENP2 (hSENP2) SUMO protease catalytic domain (protein) MASLLELTEDMEKEISNALGHGPQDEILSSAFKLRITRGDIQTLKNYHWLNDEVINFYMNLLVERNKKQGYPALHVFSTFFYPKLKSGGYQAVKRWTKGVNLFEQEIILVPIHRKVHWSLVVIDLRKKCLKYLDSMGQKGHRICEILLQYLQDESKTKRNSDLNLLEWTHHSMKPHEIPQQLNGSDCGMFTCKYADYISRDKPITFTQHQMPLFRKKMVWEILHQQLLAAALEHHHHHH: ++
- Saccharomyces cerevisiae Ulp1 SUMO protease catalytic domain (protein) MGLVPELNEKDDDQVQKALASRENTQLMNRDNIEITVRDFKTLAPRRWLNDTIIEFFMKYIEKSTPNTVAFNSFFYTNLSERGYQGVRRWMKRKKTQIDKLDKIFTPINLNQSHWALGIIDLKKKTIGYVDSLSNGPNAMSFAILTDLQKYVMEESKHTIGEDFDLIHLDCPQQPNGYDCGIYVCMNTLYGSADAPLDFDYKDAIRMRRFIAHLILTDALKLEHHHHHH: +
- Arabidopsis thalania ULP1c (AtULP1c) SUMO protease catalytic domain (protein) MVVEEACELPEGLPEDIYYPSSDQSDGRDLVQVSLKDLKCLSPGEYLTSPVINFYIRYVQHHVFSADKTAANCHFFNTFFYKKLTEAVSYKGNDRDAYFVKFRRWWKGFDLFCKSYIFIPIHEDLHWSLVIICIPDKEDESGLTIIHLDSLGLHPRNLIFNNVKRFLREEWNYLNQDAPLDLPISAKVWRDLPNMINEAEVQVPQQKNDFDCGLFLLFFIRRFIEEAPQRLTLQDLKMIHKKWFKPEEASALRIKIWNILVDLFRKGNQTDLEHHHHHH: -
- human SENP1 (hSENP1) SUMO protease catalytic domain (protein) MASFPEITEEMEKEIKNVFRNGNQDEVLSEAFRLTITRKDIQTLNHLNWLNDEIINFYMNMLMERSKEKGLPSVHAFNTFFFTKLKTAGYQAVKRWTKKVDVFSVDILLVPIHLGVHWCLAVVDFRKKNITYYDSMGGINNEACRILLQYLKQESIDKKRKEFDTNGWQLFSKKSQIPQQMNGSDCGMFACKYADCITKDRPINFTQQHMPYFRKRMVWEILHRKLLEHHHHHH: +/-
